Kindly supply the reported EC50 values for the records listed here.
Test system: TNFα
Test: cells
Format: cell-based, human
Conditions: Homo sapiens, Monocyte, LPS-stimulated human monocytes, TNFα content; read-out: EC50 TNF
One number for each entry, in nM.

Examples from the recorded data:
molecule	units	experimental-result
CC(C)(O)[C@H](F)CNC(=O)c1cnc(-c2ccc3cc(C#N)cnn23)cc1NC12CC(C#N)(C1)C2 [Example 378]	nM	38
CC(C)(O)[C@H](F)CNC(=O)c1cnc(-c2ccc3cc(C#N)cnn23)cc1Nc1ccc(C(N)=O)cc1 [Example 381]	nM	18
CN(C)C(=O)C12CCC(Nc3cc(-c4ccc5cc(C#N)cnn45)ncc3C(=O)NC[C@@H](F)C(C)(C)O)(CC1)CC2 [Example 415]	nM	14
CC(C)(O)[C@H](F)CNC(=O)c1cnc(-c2ccc3cc(C#N)cnn23)cc1Nc1ccc(-n2ccnc2)nc1 [Example 768]	nM	24
[2H]C([2H])([2H])OC(=O)NC12CCC(Nc3cc(-c4ccc5cc(C#N)cnn45)ncc3C(=O)NC[C@@H](F)C(C)(C)O)(CC1)CC2 [Example 283]	nM	14
CC(C)(O)[C@H](F)CNC(=O)c1cnc(-c2ccc3cc(C#N)cnn23)cc1Nc1sc2c(c1C(N)=O)CCCC2 [Example 365]	nM	415
CC(C)(O)[C@H](F)CNC(=O)c1cnc(-c2ccc3cc(C#N)cnn23)cc1N[C@H]1C[C@@H]2CN(S(C)(=O)=O)C[C@@H]2C1 [Example 250]	nM	37
CC(C)Nc1cc(-c2ccc3cc(C#N)cnn23)ncc1C(=O)NCCC(C)(N)C(F)(F)F (centres unmarked) [Example 561]	nM	121

Provide EC50 values for the following items, in order.
1. CNC(=O)c1ncc(Nc2cc(-c3ccc4cc(C#N)cnn34)ncc2C(=O)NC[C@@H](F)C(C)(C)O)cn1 [Example 674]
2. N#CCNC(=O)c1cnc(-c2ccc3cc(C#N)cnn23)cc1N[C@H]1CCC[C@@H](O)C1 [Example 459]
3. CC(C)(O)[C@H](F)CNC(=O)c1cnc(-c2ccc3cc(C#N)cnn23)cc1NC12CCC(C(=O)NC3CC3)(CC1)CC2 [Example 406]
4. [2H]C([2H])([2H])N(C(=O)C12CCC(Nc3cc(-c4ccc5cc(C#N)cnn45)ncc3C(=O)NC[C@@H](F)C(C)(C)O)(CC1)CC2)C([2H])([2H])[2H] [Example 404]
5. CNC(=O)OC[C@H](F)CNC(=O)c1cnc(-c2ccc3cc(C#N)cnn23)cc1NC12CCC(O)(CC1)CC2 [Example 743]
6. CC(C)(O)[C@H](F)CNC(=O)c1cnc(-c2ccc3cc(C#N)cnn23)cc1NC1CCN(C2CC2)CC1 [Example 115]

1: 67; 2: 125; 3: 33; 4: 11; 5: 54; 6: 196
